- assay: Phase 1b study in RYR1-Related Myopathy patients, plasma pharmacokinetics
- Type: in vivo, human (RYR1-Related Myopathy patients)
- particulars: human, plasma, po, 120 mg, single oral 120 mg, Day 1, three subjects, Median; read-out: AUC0-t
outcome_measure: AUC(0-t) (µg·h/mL)
Please reply with the bare figure in µg·h/mL and do not write the unit itself.

[in] So what does the record say about AUC(0-t) for COc1ccc2c(c1)CN(Cc1ccc(C(=O)O)cc1)CCS2.O=C(O)/C=C/C(=O)O ?
[out] 175

###

- assay: Phase 1b study in RYR1-Related Myopathy patients, plasma pharmacokinetics
- Format: in vivo, human (RYR1-Related Myopathy patients)
- particulars: human, plasma, po, 200 mg, single oral 200 mg, three subjects, time 1 hr
outcome_measure: concentration at 1 h (ng/mL)
Please reply with the bare figure in ng/mL and do not write the unit itself.

[in] So what does the record say about concentration at 1 h for COc1ccc2c(c1)CN(Cc1ccc(C(=O)O)cc1)CCS2.O=C(O)/C=C/C(=O)O [Compound I] ?
[out] 0
